Biological target: human TDO2 (Homo sapiens (Human))
Test: Cellular assay for TDO2 activity, A172 cells naturally expressing hTDO2
Format: cell-based
Conditions: human glioblastoma A172 cells, overnight incubation, kynurenine in supernatant
recorded.endpoint: IC50 (nM)

P: Cc1nc2ncc(-c3c[nH]c4cc(F)ccc34)cc2o1 [Example 74]
Q: O=S(=O)(CCN1CCOCC1)NC1CCN(c2ccc(-c3c[nH]c4cc(F)ccc34)cn2)CC1 [Example 59]
Problem: For P and Q , which recorded IC50 is lower? Indicate which entry you chose by stating its label.
Result: P
(P: 400 nM, Q: 1400 nM)

* * *

Biological target: human TDO2 (Homo sapiens (Human), UniProt P48775)
Sequence (P48775 whole entry): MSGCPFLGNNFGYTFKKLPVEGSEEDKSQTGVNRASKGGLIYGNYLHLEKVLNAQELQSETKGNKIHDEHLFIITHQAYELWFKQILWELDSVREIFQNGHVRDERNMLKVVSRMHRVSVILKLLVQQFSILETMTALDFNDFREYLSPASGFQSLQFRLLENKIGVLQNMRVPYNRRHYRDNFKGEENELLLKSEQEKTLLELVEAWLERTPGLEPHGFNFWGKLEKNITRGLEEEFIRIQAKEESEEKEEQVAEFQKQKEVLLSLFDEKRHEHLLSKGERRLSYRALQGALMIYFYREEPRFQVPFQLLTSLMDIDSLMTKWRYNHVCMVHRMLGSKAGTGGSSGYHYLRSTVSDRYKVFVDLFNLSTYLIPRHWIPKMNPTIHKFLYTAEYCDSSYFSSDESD
Experiment: Cellular assay for TDO2 activity, A172 cells naturally expressing hTDO2
Type: cell-based
Settings: human glioblastoma A172 cells, overnight incubation, kynurenine in supernatant
Description: A172 is a cell line derived from human brain glioblastoma cells. […] The plates were then centrifuged 5 min at 1000 rpm, and 100 μL of the supernatant were collected in a conical plate, 30 uL of TCA 30% were added and a further centrifugated at 3000×g for 10 minutes. […] Kynurenine concentrations were determined by measuring the absorbance at 480 nm. […] The TDO activity was measured as described above using ten serial concentrations of the compounds of the present invention. […]
pIC50: −log10 of the molar value.
recorded.endpoint: pIC50

Problem: Short answer please: pIC50, human TDO2 (Homo sapiens (Human), UniProt P48775), entry Fc1ccc2c(-c3ccc(NC4CCOCC4)nc3)c[nH]c2c1
Result: 6.21

P: O=c1[nH]c2cc(-c3c[nH]c4cc(F)ccc34)cnc2[nH]1
Q: CC(=O)Nc1ccc(-c2c[nH]c3cc(F)ccc23)cn1
Problem: Determine, for P and Q , which has the greater value of pIC50. Write down the label of the entry you select.
Result: Q
(Q: 6.89, P: 6.22)

* * *

Molecular target: human TDO2 (Homo sapiens (Human), UniProt P48775)
Experiment: Assay for TDO2 enzymatic activity determination
Assay type: biochemical
Details: human recombinant TDO2, L-Trp 1 mM, kynurenine absorbance at 480 nm
recorded.endpoint: IC50 (nM)

Problem: Give human TDO2 (Homo sapiens (Human), UniProt P48775) IC50 for Cc1ccncc1-c1c[nH]c2cc(F)ccc12
Result: 13000

Problem: human TDO2 (Homo sapiens (Human), UniProt P48775) / IC50 / NC(=O)CNc1ccc(-c2c[nH]c3cc(F)ccc23)cn1 : value?
Result: 790

a: [O-][n+]1cccc(-c2c[nH]c3cc(F)ccc23)c1
b: CS(=O)(=O)NC1CCN(c2ccc(-c3c[nH]c4cc(F)ccc34)cn2)CC1
c: O=C(O)CNc1ccc(-c2c[nH]c3cc(F)ccc23)cn1
Problem: Which order do these items take when sorted by rising IC50? List them. Could you list the labels in the order requested?
Result: b, c, a

* * *

Biological target: human TDO2 (Homo sapiens (Human), UniProt P48775)
Experiment: Cellular assay for TDO2 activity, A172 cells naturally expressing hTDO2
Format: cell-based
Conditions: human glioblastoma A172 cells, overnight incubation, kynurenine in supernatant
recorded.endpoint: IC50 (nM)

Take a look at these entries with their results.
Problem: I'd like to know its IC50. The compound in question is O=C1NCCN1c1ccc(-c2c[nH]c3cc(F)ccc23)cn1 [Example 78]
Result: 490

Problem: // IC50 lookup, key: CS(=O)(=O)NC1CCN(c2ccc(-c3c[nH]c4cc(F)ccc34)cn2)CC1 [Example 14]
Result: 1800

A: CS(=O)(=O)N1CCN(S(=O)(=O)c2ccc(-c3c[nH]c4cc(F)ccc34)cn2)CC1 [Example 90]
B: CCOC(=O)Cn1c(=O)[nH]c2cc(-c3c[nH]c4cc(F)ccc34)cnc21 [Example 86]
Problem: Between the entries labeled A and B , whose measured IC50 is lower? Return value: the label identifying the chosen record.
Result: B
(B: 610 nM, A: 1400 nM)
